# System: Plasmodium berghei
# assay: Screen against P. berghei liver stage (PbLuc), transformed with Luciferase, at 10uM
# Type: functional, HepG2
# condition: tested at 10 uM
Among all 69,000 compounds or so, about 8,600 (12%) showed an effect of 50% or more. Shown is part of a subset that was picked to be rich in strong results.
A collection of compounds and their measured INHIBITION
Supply the numeric figure in %, leaving out any unit text.

Below, each entry is followed by its recorded INHIBITION result.
[
  {
    "compound": "FC(F)(F)c1ccnc(N2CCCC(N3CCOCC3)C2)c1 (stereo not given)",
    "system name": "Plasmodium berghei",
    "property measured": "INHIBITION",
    "value measured": 40.5
  },
  {
    "compound": "Cn1ccnc1CN1CCC2(CC(=O)N(c3cncnc3)C2)C1 (stereo not given)",
    "system name": "Plasmodium berghei",
    "property measured": "INHIBITION",
    "value measured": 33.5
  },
  {
    "compound": "CCn1ncc(-c2cc(C(F)F)n3nc(CCC(=O)O)nc3n2)c1C",
    "system name": "Plasmodium berghei",
    "property measured": "INHIBITION",
    "value measured": 20.4
  },
  {
    "compound": "CC(O)CN1CCN(C(=O)c2cnn(-c3ccccc3Cl)c2)CC1 (stereo not given)",
    "system name": "Plasmodium berghei",
    "property measured": "INHIBITION",
    "value measured": 32
  },
  {
    "compound": "CCN1CCC(CNC(=O)C2(c3cccc(C)c3)CCCCC2)CC1",
    "system name": "Plasmodium berghei",
    "property measured": "INHIBITION",
    "value measured": -3.2
  }
]

In: Find the recorded INHIBITION belonging to Cn1cc(N2CC3(CCN(Cc4nccn4C)C3)CC2=O)cn1 (stereo not given) and report it.
Out: 14.8

In: Find the recorded INHIBITION belonging to CSC1(CNC(=O)c2cccc(-n3cccn3)c2)CCOCC1 and report it.
Out: -46.4

In: Find the recorded INHIBITION belonging to CN(CCc1ccccn1)C(=O)Nc1cccnc1-n1cccn1 and report it.
Out: -19.2

In: Find the recorded INHIBITION belonging to CC(Nc1ncnc2sccc12)c1cnn(C)c1 (stereo not given) and report it.
Out: 38.7

In: Find the recorded INHIBITION belonging to COC(=O)Cn1c(=O)[nH]c2cn(-c3cccc(Cl)c3)c(=O)n21 and report it.
Out: 33.7

In: Find the recorded INHIBITION belonging to COc1ccc(CN2CCN(c3ncc(Cl)cn3)CC2)cc1 and report it.
Out: 11.8

In: Find the recorded INHIBITION belonging to CC(C(=O)N1CCCCCC1)N1CCN(c2nccs2)CC1 (stereo not given) and report it.
Out: 31.1

In: Find the recorded INHIBITION belonging to COCCOc1ccccc1CNCc1c(C)nn(C)c1N(C)C and report it.
Out: -2.44
